# System: A549
# experiment: Antiproliferative activity against human A549 cells assessed as growth inhibition at 10 uM after 48 hrs by SRB assay
# Assay type: functional
# condition description: A549, 48 h, read-out: GI
Give true when the value for inhibition of growth at 10 µM is at least 30%. Give false when it is less.

>  <structure>
c1ccc(Nc2nc3c(N4CCC(N5CCCCC5)CC4)ncnc3s2)cc1

>  <cat>
false

$$$$
>  <structure>
CCN(CC)c1ncnc2sc(Nc3ccccc3)nc12

>  <cat>
true

$$$$
>  <structure>
CN1CCN(c2ncnc3sc(Nc4ccccc4)nc23)CC1

>  <cat>
false

$$$$
>  <structure>
CN1CCN(c2ncnc3sc(Nc4ccc(Cl)cc4)nc23)CC1

>  <cat>
false

$$$$
>  <structure>
Clc1ncnc2sc(Nc3ccccc3)nc12

>  <cat>
false

$$$$
>  <structure>
CN(C)c1ncnc2sc(Nc3ccccc3)nc12

>  <cat>
false

$$$$
>  <structure>
Clc1ccc(Nc2nc3c(Cl)ncnc3s2)cc1

>  <cat>
true

$$$$
>  <structure>
COc1ccc(Nc2nc3c(Cl)ncnc3s2)cc1

>  <cat>
false

$$$$
>  <structure>
Clc1ccc(Nc2nc3c(N4CCCCC4)ncnc3s2)cc1

>  <cat>
true

$$$$
>  <structure>
CCN(CC)c1ncnc2sc(Nc3ccc(Cl)cc3)nc12

>  <cat>
true

$$$$
>  <structure>
Clc1ccc(Nc2nc3c(N4CCCC4)ncnc3s2)cc1

>  <cat>
false

$$$$
>  <structure>
O=C(Nc1nc2c(Cl)ncnc2s1)c1ccccc1

>  <cat>
false

$$$$
